From: ChEMBL document CHEMBL1124531

System: L1210
Assay: Inhibitory activity against murine L1210 leukemic cell growth
Type: functional
Details: Mus musculus, read-out: ID50 (the source's name)
readout_label: IC50 (µM)

Below: 2 compounds and their reported IC50.
Data request, read-out IC50, for `CN(C)Cc1cc(O)c2c(c1)C(=O)c1cccc(O)c1C2=O`
2.2

Please give the result for `COc1cc(O)c2c(c1)C(=O)c1cc(CN(CCCl)CCCl)cc(OC)c1C2=O` too.
3.3

[a] COc1cc(O)c2c(c1)C(=O)c1cc(CN(CCO)CCO)cc(OC)c1C2=O
[b] COc1cccc2c1C(=O)c1c(OC)cc(C)cc1C2=O
Lower value of IC50 belongs to which: a or b ? Label of pick, please.
a

---

Test system: L1210
Assay: Inhibitory activity against murine L1210 leukemic cell growth
Type: functional
Details: Mus musculus, read-out: ID50 (the source's name)
readout_label: IC50 (µM)

Illustrative cases are given below, each with its answer.
I am curious: what IC50 value has been reported for `COc1cc(OC)c2c(c1)C(=O)c1cc(CNCCCl)cc(OC)c1C2=O` ?
32

Also `CCNCc1cc(O)c2c(c1)C(=O)c1cc(OC)cc(O)c1C2=O` ?
0.72

Do the same for `COc1cc(O)c2c(c1)C(=O)c1cc(CBr)cc(O)c1C2=O` please
59

Proceed to `COc1cc(OC)c2c(c1)C(=O)c1cc(C)cc(OC)c1C2=O`
100

Proceed to `COc1cc(OC)c2c(c1)C(=O)c1cc(CN(CCCl)CCCl)cc(OC)c1C2=O`
2.7

Ok, now `COc1cc(O)c2c(c1)C(=O)c1cc(CNCCCl)cc(O)c1C2=O`
18

[I] NCc1cc(O)c2c(c1)C(=O)c1cccc(O)c1C2=O
[II] COc1cc(OC)c2c(c1)C(=O)c1cc(CBr)cc(OC)c1C2=O
[III] COc1cc(O)c2c(c1)C(=O)c1cc(CN(CCO)CCO)cc(O)c1C2=O
Thanks in advance: please rank these 3 entries by IC50, highest to lowest. // respond by listing labels in the order requested
III, I, II
(III: 14 µM, I: 8.5 µM, II: 0.68 µM)

---

System: Nucleic Acid
Assay: Ratio for human acute promyelocytic leukemia cells(HL-60) cell growth inhibition and [3H]TdR incorporation into DNA in HL-60 cells
Assay type: functional, cell-based
readout_label: Ratio
Simply state the number, no unit and no words.

Sample records with Ratio:
I am curious: what Ratio value has been reported for `O=C1c2cccc(O)c2C(=O)c2c(O)cc(CN(CCCl)CCCl)cc21` ?
383

Next compound: `CNC(=O)OCCN(CCOC(=O)NC)Cc1cc(OC)c2c(c1)C(=O)c1cccc(O)c1C2=O`
1

Likewise for `CCNCc1cc(OC)c2c(c1)C(=O)c1cc(OC)cc(OC)c1C2=O` ?
0.76

What do you get for `COc1cccc2c1C(=O)c1c(OC)cc(CNCCCl)cc1C2=O` ?
0.22

Same question, `O=C1c2cccc(O)c2C(=O)c2c(O)cc(CNCCCO)cc21` this time
5

Continuing:
Return reported Ratio; argument: `O=C1c2cccc(O)c2C(=O)c2c(O)cc(CNCCCl)cc21`
5.2

---

System: Nucleic Acid
Test: Ratio for human acute promyelocytic leukemia cells(HL-60) cell growth inhibition and [3H]TdR incorporation into DNA in HL-60 cells
Type: functional, cell-based
compounds and their reported Ratio
API doc: respond with a numeric literal and nothing else, no unit.

Fill in: Ratio of `COc1cc(CN(CCO)CCO)cc2c1C(=O)c1c(O)cccc1C2=O` is ___
4.2

How about this compound: `CCN(CC)Cc1cc(OC)c2c(c1)C(=O)c1cc(OC)cc(O)c1C2=O`
26.9

Consider next the compound `O=C1c2cccc(O)c2C(=O)c2c(O)cc(CBr)cc21` in the same way.
2.3

Next record, please: `COc1cc(O)c2c(c1)C(=O)c1cc(CN(CCCl)CCCl)cc(O)c1C2=O`
19.7
